Target: D(3) dopamine receptor (Homo sapiens)
Test: Agonist activity at human dopamine D3 receptor expressed in CHO cells assessed as induction of [3H]thymidine incorporation after 2 hrs
Type: functional, cell-based
readout_kind: EC50 (pM)
Report the value in pM with no unit label.

Please fill in: EC50 reported for CCCN(CCCCNC(=O)c1ccc(-c2ccccc2)cc1)[C@H]1CCn2nccc2C1 = 2.8

----------
// Ki lookup, one value per entry
Target: D(2) dopamine receptor (Homo sapiens)
Assay: Displacement of [3H]spiperone from human dopamine D2long receptor expressed in CHO cells after 60 mins
Assay type: cell-based
Numeric answer plus unit only.

CCCN(CCCCNC(=O)c1ccc(-c2ccccc2)cc1)C1CCn2ncc(C=O)c2C1 (stereo not drawn) ... 8.4 µM
CCCN(CCCCNC(=O)c1ccc(-c2ccccc2)cc1)C1CCn2ncc(Cl)c2C1 (stereo not drawn) ... 0.1 µM

Let's switch to this compound now.
The compound CCCN(CCC)[C@H]1CCn2nccc2C1 on D(2) dopamine receptor (Homo sapiens): Ki was 0.41 µM

----------
Target: D(3) dopamine receptor (Homo sapiens, UniProt P35462)
Sequence (P35462 whole entry): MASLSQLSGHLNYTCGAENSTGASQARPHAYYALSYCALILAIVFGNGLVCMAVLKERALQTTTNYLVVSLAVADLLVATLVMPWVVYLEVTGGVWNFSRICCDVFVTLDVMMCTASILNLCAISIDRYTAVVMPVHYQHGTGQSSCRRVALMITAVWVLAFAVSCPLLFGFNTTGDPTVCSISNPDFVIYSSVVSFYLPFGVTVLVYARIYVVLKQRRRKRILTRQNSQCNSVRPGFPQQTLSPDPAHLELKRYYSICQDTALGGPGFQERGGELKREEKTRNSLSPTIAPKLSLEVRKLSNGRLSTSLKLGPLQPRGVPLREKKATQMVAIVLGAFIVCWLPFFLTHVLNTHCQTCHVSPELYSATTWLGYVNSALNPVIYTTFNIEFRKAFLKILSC
Test: Displacement of [3H]spiperone from wild type human dopamine D3 receptor expressed in HEK293 cells after 60 mins
Assay type: cell-based
pKi: −log10 of the molar value.
Label scheme for pKi: lower than 7 is no (0), 7 and above is yes (1).

CCCN(CCCCNC(=O)c1ccccc1)C1Cc2ccccc2C1 ... yes (1)
CCCN(CCCCNC(=O)c1ccc(-c2ccccc2)cc1)[C@@H]1CCn2nccc2C1 ... yes (1)
COc1ccccc1N1CCN(CCCCNC(=O)c2ccc(-c3ccccc3)cc2)CC1 ... yes (1)

Enquiry: Reported pKi reaches at least 7 for CCCN(CCCCNC(C)=O)C1Cc2ccccc2C1 ?
Return: no (0)

Enquiry: Determine whether measured pKi meets or exceeds 7 for CCCN(CCC)C1Cc2ccccc2C1
Return: no (0)

Enquiry: Textbook exercise: given the entry CCCN(CCCCNC(=O)c1ccc(-c2ccccc2)cc1)[C@H]1CCn2nccc2C1 , state whether its pKi is greater than or equal to 7.
Return: yes (1)

Enquiry: API: above_or_equal(metric=pKi, cutoff=7) for item CCCCC(=O)NCCCCN(CCC)C1Cc2ccccc2C1
Return: yes (1)

----------
Reported values of Ki for individual entries
Target: D(3) dopamine receptor (Homo sapiens, UniProt P35462)
Experiment: Displacement of [3H]spiperone from human dopamine D3 receptor S5.42A mutant expressed in HEK293 cells after 60 mins
Format: cell-based
Response body: numeric value in nM, unit text excluded.

CCCN(CCCCNC(=O)c1ccc(-c2ccccc2)cc1)[C@@H]1CCn2nccc2C1 ... 240
CCCN(CCC)[C@H]1CCn2nccc2C1 ... 840

// recorded Ki for CCCN(CCCCNC(=O)c1ccc(-c2ccccc2)cc1)[C@H]1CCn2nccc2C1 : 2.3

For reference, reported Ki for COc1ccccc1N1CCN(CCCCNC(=O)c2ccc(-c3ccccc3)cc2)CC1 stands at 2.8

----------
Molecular target: D(2) dopamine receptor (Homo sapiens, UniProt P14416)
Sequence (P14416 whole entry): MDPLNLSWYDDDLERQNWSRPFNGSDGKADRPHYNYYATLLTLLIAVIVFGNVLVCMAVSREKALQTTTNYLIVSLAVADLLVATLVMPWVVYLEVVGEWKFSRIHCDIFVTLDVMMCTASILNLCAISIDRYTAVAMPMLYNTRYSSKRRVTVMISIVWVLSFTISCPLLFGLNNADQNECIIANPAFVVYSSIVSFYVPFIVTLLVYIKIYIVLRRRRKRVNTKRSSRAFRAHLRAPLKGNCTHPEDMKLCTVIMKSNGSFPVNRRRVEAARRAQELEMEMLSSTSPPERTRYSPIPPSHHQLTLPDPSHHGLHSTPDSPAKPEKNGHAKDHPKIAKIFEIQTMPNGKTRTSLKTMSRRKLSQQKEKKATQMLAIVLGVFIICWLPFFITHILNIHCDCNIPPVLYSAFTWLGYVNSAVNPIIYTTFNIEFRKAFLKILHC
Assay: Displacement of [3H]7-OH-DPAT from human dopamine D2long receptor expressed in CHO cells after 60 mins
Type: cell-based
readout_kind: pKi
Reminder that pKi means the negative base-10 logarithm of the concentration expressed in mol/L.

Worked cases, answers included:
CCCN(CCCCNC(=O)c1ccc(-c2ccccc2)cc1)[C@@H]1CCn2nccc2C1 ... 7.31
CCCN(CCC)[C@H]1CCn2nccc2C1 ... 8.34
CCCN(CCC)[C@@H]1CCn2nccc2C1 ... 4.24

Looking up CCCN(CCCCNC(=O)c1ccc(-c2ccccc2)cc1)[C@H]1CCn2nccc2C1 , I found its pKi recorded as 9.00
